Source of measurements: paper PMC7269503

Protocol Text: in vivo
Measurement Conditions: female, ICR, mouse, po, 2.5 mg/kg
Observed Property: Tmax

Incoming: Endpoint output: Tmax of O=C1CCc2c(OC[C@]3(O)CCN(c4c(F)cc(Cl)cc4F)C[C@H]3O)ccc(F)c2N1 . Value?
Outgoing: 30 min

* * *

Protocol Text: in vivo
Measurement Conditions: female, ICR, mouse, po, 5 mg/kg
Observed Property: Tmax (h)
Numeric answer only, unit h assumed.

Incoming: # Tmax lookup, item O=C1CCc2c(OC[C@]3(O)CCN(c4c(F)cc(Cl)cc4F)C[C@H]3O)ccc(F)c2N1
Outgoing: 1

* * *

Protocol Text: in vivo
Measurement Conditions: female, ICR, mouse, po, 1.25 mg/kg
Observed Property: Tmax (h)
Numeric answer only, unit h assumed.

Incoming: Entry O=C1CCc2c(OC[C@]3(O)CCN(c4c(F)cc(Cl)cc4F)C[C@H]3O)ccc(F)c2N1 has what Tmax?
Outgoing: 1

* * *

# reported IC50; entries follow
Assay Target: recombinant M. bovis BCG-derived DprE1 (Mycobacterium tuberculosis)
Sequence (P9WJF1 whole entry): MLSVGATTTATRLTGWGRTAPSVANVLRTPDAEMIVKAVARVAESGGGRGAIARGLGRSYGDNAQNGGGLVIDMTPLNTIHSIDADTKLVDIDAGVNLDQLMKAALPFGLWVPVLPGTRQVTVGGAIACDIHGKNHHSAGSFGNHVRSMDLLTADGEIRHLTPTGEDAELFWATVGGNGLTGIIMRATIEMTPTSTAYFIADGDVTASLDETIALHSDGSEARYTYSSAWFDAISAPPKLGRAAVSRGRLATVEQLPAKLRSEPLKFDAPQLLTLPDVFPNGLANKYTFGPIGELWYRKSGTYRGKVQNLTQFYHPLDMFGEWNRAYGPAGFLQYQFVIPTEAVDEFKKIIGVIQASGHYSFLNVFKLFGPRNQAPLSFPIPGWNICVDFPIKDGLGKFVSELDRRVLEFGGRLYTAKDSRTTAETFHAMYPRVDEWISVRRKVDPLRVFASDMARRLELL
Protocol Text: biochemical

Incoming: Quick one: IC50 for C[C@H]1COC2(CCN(c3nc(=O)c4cc(C(F)(F)F)cc([N+](=O)[O-])c4s3)CC2)O1 ?
Outgoing: 403 nM

Incoming: // returns reported IC50 for input NNC(=O)c1ccncc1
Outgoing: > 10000 nM

* * *

Protocol Text: in vivo
Measurement Conditions: female, ICR, mouse, po, 10 mg/kg
Observed Property: Tmax
Answer with the number, then the unit.

Incoming: Quick check: Tmax of O=C1CCc2c(OC[C@]3(O)CCN(c4c(F)cc(Cl)cc4F)C[C@H]3O)ccc(F)c2N1 ?
Outgoing: 1 h

* * *

Protocol Text: in vivo
Measurement Conditions: female, ICR, mouse, po, 1.25 mg/kg, t1/2, lung, 1.25 mg/kg oral, calculated 4 - 8h
Observed Property: half-life (min)
Provide only the numeric value, understood in min.

Incoming: Find the recorded half-life belonging to O=C1CCc2c(OC[C@]3(O)CCN(c4c(F)cc(Cl)cc4F)C[C@H]3O)ccc(F)c2N1 and report it.
Outgoing: 120
